// reported Ki for each item listed
Target: PACE4 (Homo sapiens)
Sequence (P29122 150-969): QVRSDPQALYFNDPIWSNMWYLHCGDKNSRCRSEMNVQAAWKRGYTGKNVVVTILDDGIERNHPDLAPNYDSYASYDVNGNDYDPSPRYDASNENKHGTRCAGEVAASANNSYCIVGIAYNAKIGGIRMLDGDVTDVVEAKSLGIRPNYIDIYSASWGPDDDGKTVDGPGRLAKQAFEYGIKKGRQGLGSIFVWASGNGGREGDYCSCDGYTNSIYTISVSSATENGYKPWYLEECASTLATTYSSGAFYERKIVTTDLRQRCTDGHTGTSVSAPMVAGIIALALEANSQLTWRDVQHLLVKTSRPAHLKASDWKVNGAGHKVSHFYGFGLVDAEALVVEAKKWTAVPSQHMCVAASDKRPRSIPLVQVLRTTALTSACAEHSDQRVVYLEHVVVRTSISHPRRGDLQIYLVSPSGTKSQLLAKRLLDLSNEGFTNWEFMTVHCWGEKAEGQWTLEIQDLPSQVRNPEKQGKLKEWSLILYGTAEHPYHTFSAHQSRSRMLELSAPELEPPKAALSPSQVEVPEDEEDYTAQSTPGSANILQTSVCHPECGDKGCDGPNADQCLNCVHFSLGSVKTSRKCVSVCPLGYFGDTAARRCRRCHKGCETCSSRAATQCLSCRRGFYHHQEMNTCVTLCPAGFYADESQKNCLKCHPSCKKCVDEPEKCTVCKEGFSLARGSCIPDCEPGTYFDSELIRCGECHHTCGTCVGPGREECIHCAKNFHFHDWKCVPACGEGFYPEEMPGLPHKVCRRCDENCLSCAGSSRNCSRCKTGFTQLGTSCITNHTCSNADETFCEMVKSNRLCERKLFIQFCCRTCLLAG
Test: Inhibition constant (Ki) for PACE4
Format: biochemical
Settings: Table 1; read-out: Ki for PACE4
Numbered stars: 1 amine (or outer) side, 2 acyl side, 3 side chain; on linkers, the order of the positions; unused ones are H or OH. Square brackets hold non-standard residues; d marks the D form. Peptide text beside a SMILES is read from it. * marks the point of attachment. X3 = CC(C)C[C@H](N[*:1])c1cn([C@@H](CC(C)C)C(=O)[*:2])nn1; X4 = N=C(N)NCCCN(CC(N)=O)N*; X2 = N=C(N)NC/C=C/CN*
Numeric only. Scale: nM

[in] I am curious: what Ki value has been reported for CC(=O)N[C@@H](CC(C)C)C(=O)N[C@@H](CC(C)C)c1cn([C@@H](CC(C)C)C(=O)N[C@@H](CC(C)C)C(=O)N[C@@H](CCCNC(=N)N)C(=O)N[C@H](C(=O)N[C@@H](CCCCN)C(=O)N[C@@H](CCCNC(=N)N)C(N)=O)C(C)C)nn1 [ML[click]^P7-P6, Ac-LL[click]LLRVKR-NH2] (Ac-L[X3]LRVKR-NH2) ?
[out] 600

[in] Okay, and CC(=O)N[C@@H](CC(C)C)C(=O)N[C@@H](CC(C)C)C(=O)N[C@@H](CC(C)C)C(=O)N[C@@H](CC(C)C)C(=O)N[C@@H](CCCNC(=N)N)C(=O)N[C@H](C(=O)N[C@@H](CCCCN)C(=O)NN(CCCNC(=N)N)CC(N)=O)C(C)C [ML[Azaβ3R]^P1, Ac-LLLLRVK[Azaβ3R]-NH2] (Ac-LLLLRVK-X4) ?
[out] 460

[in] Okay, and CC(=O)N[C@@H](CC(C)C)C(=O)N[C@@H](CC(C)C)C(=O)N[C@@H](CC(C)C)C(=O)N[C@@H](CC(C)C)C(=O)N[C@@H](CCCNC(=N)N)C(=O)N[C@H](C(=O)N[C@@H](CCCCN)C(=O)NC/C=C/CNC(=N)N)C(C)C [ML-[ΔR-CO2]^P1, Ac-LLLLRVK-[ΔR-COO]] (Ac-LLLLRVK-X2) ?
[out] 14

[in] Okay, and CC(=O)N[C@@H](CC(C)C)c1cn([C@@H](CC(C)C)C(=O)N[C@@H](CC(C)C)C(=O)N[C@@H](CC(C)C)C(=O)N[C@@H](CCCNC(=N)N)C(=O)N[C@H](C(=O)N[C@@H](CCCCN)C(=O)N[C@@H](CCCNC(=N)N)C(N)=O)C(C)C)nn1 [ML[click]^P8-P7, Ac-L[click]LLLRVKR-NH2] (Ac-[X3]LLRVKR-NH2) ?
[out] 37

// provenance: patent US9809621B2
